Form field: IC50 (one value per entry).
Target: T1, His-tagged PCSK9Δhelix (human, UniProt Q8NBP7 31-152; Q8NBP7 168-692)
T1 construct: Human PCSK9 M1-Q692 with an engineered TEV site, cut by TEV protease; new N-terminus of the catalytic domain is S-A168; also called His-PCSK9Δhelix; not shown: His tag
T1 sequence (Q8NBP7 31-152, stated change not applied, chain 1 of 2): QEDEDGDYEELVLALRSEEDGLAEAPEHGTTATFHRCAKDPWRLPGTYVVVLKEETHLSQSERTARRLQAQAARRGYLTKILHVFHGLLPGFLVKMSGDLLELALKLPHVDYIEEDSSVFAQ
T1 sequence (Q8NBP7 other isoform, or with tags, fused parts or gaps mutant, chain 2 of 2): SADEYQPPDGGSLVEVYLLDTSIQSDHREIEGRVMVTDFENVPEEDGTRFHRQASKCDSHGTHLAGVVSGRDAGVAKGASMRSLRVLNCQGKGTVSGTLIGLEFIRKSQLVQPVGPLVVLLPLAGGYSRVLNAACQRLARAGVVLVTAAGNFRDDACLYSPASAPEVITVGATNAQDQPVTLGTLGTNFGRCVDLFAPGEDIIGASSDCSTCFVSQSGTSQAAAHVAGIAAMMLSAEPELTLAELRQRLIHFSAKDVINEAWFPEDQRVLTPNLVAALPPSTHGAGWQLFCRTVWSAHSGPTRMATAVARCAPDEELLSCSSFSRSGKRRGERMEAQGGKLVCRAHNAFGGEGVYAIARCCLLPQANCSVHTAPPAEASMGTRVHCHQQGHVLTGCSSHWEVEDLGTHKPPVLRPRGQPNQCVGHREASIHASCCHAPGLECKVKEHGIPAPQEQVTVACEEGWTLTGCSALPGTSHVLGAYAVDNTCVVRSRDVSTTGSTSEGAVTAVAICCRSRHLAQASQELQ
Assay: TR-FRET competition (PCSK9Δhelix/Ab20 assay); competitor Ab20
Bridge positions count the residues as written; N and C are the ends.
Measurement label: IC50

Ac-GCLWNLKRIGSQCWF-NH2 (disulfide 2-13; SMILES CC[C@H](C)[C@@H]1NC(=O)[C@H](CCCNC(=N)N)NC(=O)[C@H](CCCCN)NC(=O)[C@H](CC(C)C)NC(=O)[C@H](CC(N)=O)NC(=O)[C@H](Cc2c[nH]c3ccccc23)NC(=O)[C@H](CC(C)C)NC(=O)[C@@H](NC(=O)CNC(C)=O)CSSC[C@@H](C(=O)N[C@@H](Cc2c[nH]c3ccccc23)C(=O)N[C@@H](Cc2ccccc2)C(N)=O)NC(=O)[C@H](CCC(N)=O)NC(=O)[C@H](CO)NC(=O)CNC1=O) [Compound 87 (Ac-GCLWNLKRIGSQCWF-NH2)] = 9.53 µM
Ac-FCLWNLKRIGSQCEY-NH2 (disulfide 2-13; SMILES CC[C@H](C)[C@@H]1NC(=O)[C@H](CCCNC(=N)N)NC(=O)[C@H](CCCCN)NC(=O)[C@H](CC(C)C)NC(=O)[C@H](CC(N)=O)NC(=O)[C@H](Cc2c[nH]c3ccccc23)NC(=O)[C@H](CC(C)C)NC(=O)[C@@H](NC(=O)[C@H](Cc2ccccc2)NC(C)=O)CSSC[C@@H](C(=O)N[C@@H](CCC(=O)O)C(=O)N[C@@H](Cc2ccc(O)cc2)C(N)=O)NC(=O)[C@H](CCC(N)=O)NC(=O)[C@H](CO)NC(=O)CNC1=O) [Compound 95 (Ac-FCLWNLKRIGSQCEY-NH2)] = 12.7 µM
Ac-CRLPWNLQRIALPC-NH2 (disulfide 1-14; SMILES CC[C@H](C)[C@@H]1NC(=O)[C@H](CCCNC(=N)N)NC(=O)[C@H](CCC(N)=O)NC(=O)[C@H](CC(C)C)NC(=O)[C@H](CC(N)=O)NC(=O)[C@H](Cc2c[nH]c3ccccc23)NC(=O)[C@@H]2CCCN2C(=O)[C@H](CC(C)C)NC(=O)[C@H](CCCNC(=N)N)NC(=O)[C@@H](NC(C)=O)CSSC[C@@H](C(N)=O)NC(=O)[C@@H]2CCCN2C(=O)[C@H](CC(C)C)NC(=O)[C@H](C)NC1=O) [Compound 70 (Ac-CRLPWNLQRIALPC-NH2)] = 7.26 µM
